In this section we review reported pKd values for a set of binders.
Molecular target: T1, human C5 R885C-mmh (human, UniProt P01031 19-1676)
T1 construct: also called human C5 variant R885C
Assay: SPR, mAb captured via anti-hFc, 37C
pKd: −log10 of the molar value.

binder	pKd
H4H11686N (antibody, V domains shown, also called H2M11686N) VH: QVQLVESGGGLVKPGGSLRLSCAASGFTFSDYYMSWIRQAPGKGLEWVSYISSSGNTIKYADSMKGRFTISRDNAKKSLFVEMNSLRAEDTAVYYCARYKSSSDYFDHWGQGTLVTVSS VL: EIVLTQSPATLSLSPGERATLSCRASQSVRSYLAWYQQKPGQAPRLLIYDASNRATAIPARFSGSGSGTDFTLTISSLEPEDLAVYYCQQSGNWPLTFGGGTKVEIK	8.56
H4H12159P (antibody, human IgG4, V domains shown, Human IgG4 Fc with S108P hinge mutation (H4H)) VH: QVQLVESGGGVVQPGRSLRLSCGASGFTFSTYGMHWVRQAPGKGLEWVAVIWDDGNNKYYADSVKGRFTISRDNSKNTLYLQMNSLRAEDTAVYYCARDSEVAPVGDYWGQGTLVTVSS VL: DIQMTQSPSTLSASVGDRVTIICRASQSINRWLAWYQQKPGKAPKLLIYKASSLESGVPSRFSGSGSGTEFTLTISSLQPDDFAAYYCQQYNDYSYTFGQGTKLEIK	8.76
H4H12163P (antibody, human IgG4, V domains shown, Human IgG4 Fc with S108P hinge mutation (H4H)) VH: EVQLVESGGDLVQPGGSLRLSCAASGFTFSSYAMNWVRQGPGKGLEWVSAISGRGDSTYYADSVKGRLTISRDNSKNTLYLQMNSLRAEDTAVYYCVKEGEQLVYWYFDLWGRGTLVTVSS VL: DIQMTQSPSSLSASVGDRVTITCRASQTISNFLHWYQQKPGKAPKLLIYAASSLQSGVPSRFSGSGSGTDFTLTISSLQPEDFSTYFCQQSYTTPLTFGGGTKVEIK	8.30
H4H12171P (antibody, human IgG4, V domains shown, Human IgG4 Fc with S108P hinge mutation (H4H)) VH: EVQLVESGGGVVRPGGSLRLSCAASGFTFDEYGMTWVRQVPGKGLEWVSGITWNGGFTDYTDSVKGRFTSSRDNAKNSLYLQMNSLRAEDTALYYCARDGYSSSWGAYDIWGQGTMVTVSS VL: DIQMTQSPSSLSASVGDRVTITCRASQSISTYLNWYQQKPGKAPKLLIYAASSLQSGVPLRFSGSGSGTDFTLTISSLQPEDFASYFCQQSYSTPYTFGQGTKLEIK	8.70
H4H12167P (antibody, human IgG4, V domains shown, Human IgG4 Fc with S108P hinge mutation (H4H)) VH: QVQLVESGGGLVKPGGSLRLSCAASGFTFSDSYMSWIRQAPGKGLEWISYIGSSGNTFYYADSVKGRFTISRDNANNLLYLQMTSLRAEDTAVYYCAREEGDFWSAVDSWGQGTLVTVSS VL: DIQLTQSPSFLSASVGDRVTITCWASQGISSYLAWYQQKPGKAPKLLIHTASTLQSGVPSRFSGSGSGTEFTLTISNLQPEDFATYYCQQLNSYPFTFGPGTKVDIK	8.44
